Recorded KIDNEY_TOTAL for the following compounds
# Species: Rattus norvegicus
# PROTOCOL_DESCRIPTION: Open TG-GATES - Regimen: Daily Repeat
# Type: toxicity, organism-based, Sprague-Dawley
# Set-up: regimen Daily Repeat, gender Male, age 6 weeks
# DETAILS: in vivo, po, 1000 mg/kg, […], tissue Kidney, route gavage, dose level High, time 7 day
RECORDED_ENDPOINT: KIDNEY_TOTAL (g)

| GIVEN_SMILES | UNITS | OBS_VALUE |
| --- | --- | --- |
| CCOc1ccc(NC(C)=O)cc1 | g | 2.2 |
| COC(=O)C1=C(C)NC(C)=C(C(=O)OC)C1c1ccccc1[N+](=O)[O-] | g | 1.9 |
| CNC(=C[N+](=O)[O-])NCCSCc1ccc(CN(C)C)o1 | g | 2.3 |
| CN/C(=N/CCSCc1nc[nH]c1C)NC#N | g | 2.2 |
| Cc1nnc2n1-c1ccc(Cl)cc1C(c1ccccc1Cl)=NC2 | g | 2.3 |
| O=C(OC[C@H]1O[C@@H](OC(=O)c2cc(O)c(O)c(OC(=O)c3cc(O)c(O)c(O)c3)c2)[C@H](OC(=O)c2cc(O)c(O)c(OC(=O)c3cc(O)c(O)c(O)c3)c2)[C@@H](OC(=O)c2cc(O)c(O)c(OC(=O)c3cc(O)c(O)c(O)c3)c2)[C@@H]1OC(=O)c1cc(O)c(O)c(OC(=O)c2cc(O)c(O)c(O)c2)c1)c1cc(O)c(O)c(OC(=O)c2cc(O)c(O)c(O)c2)c1 | g | 2.2 |

###

# Species: Rattus norvegicus
# PROTOCOL_DESCRIPTION: Open TG-GATES - Regimen: Single
# Format: toxicity, organism-based, Sprague-Dawley
# Set-up: regimen Single, gender Male, age 6 weeks
# DETAILS: in vivo, po, 1000 mg/kg, 9 h, tissue Blood, route gavage, dose level High
Recorded Hb for the following molecules

| GIVEN_SMILES | Hb, g/dL |
| --- | --- |
| CN/C(=N/CCSCc1nc[nH]c1C)NC#N | 13.1 |
| COC(=O)C1=C(C)NC(C)=C(C(=O)OC)C1c1ccccc1[N+](=O)[O-] | 13.2 |
| CNC(=C[N+](=O)[O-])NCCSCc1ccc(CN(C)C)o1 | 13.2 |
| Cc1nnc2n1-c1ccc(Cl)cc1C(c1ccccc1Cl)=NC2 | 13.3 |
| O=C(OC[C@H]1O[C@@H](OC(=O)c2cc(O)c(O)c(OC(=O)c3cc(O)c(O)c(O)c3)c2)[C@H](OC(=O)c2cc(O)c(O)c(OC(=O)c3cc(O)c(O)c(O)c3)c2)[C@@H](OC(=O)c2cc(O)c(O)c(OC(=O)c3cc(O)c(O)c(O)c3)c2)[C@@H]1OC(=O)c1cc(O)c(O)c(OC(=O)c2cc(O)c(O)c(O)c2)c1)c1cc(O)c(O)c(OC(=O)c2cc(O)c(O)c(O)c2)c1 | 13.1 |

###

# Species on record: Rattus norvegicus
# PROTOCOL_DESCRIPTION: Open TG-GATES - Regimen: Daily Repeat
# Format: toxicity, organism-based, Sprague-Dawley
# Set-up: regimen Daily Repeat, gender Male, age 6 weeks
# DETAILS: in vivo, po, 1000 mg/kg, […], tissue Blood, route gavage, dose level High, time 14 day
Recorded Fbg for the following molecules
RECORDED_ENDPOINT: Fbg (mg/dL)

| GIVEN_SMILES | UNITS | OBS_VALUE |
| --- | --- | --- |
| CNC(=C[N+](=O)[O-])NCCSCc1ccc(CN(C)C)o1 | mg/dL | 234.2 |
| CN/C(=N/CCSCc1nc[nH]c1C)NC#N | mg/dL | 225.8 |
| COC(=O)C1=C(C)NC(C)=C(C(=O)OC)C1c1ccccc1[N+](=O)[O-] | mg/dL | 267.4 |
| O=C(OC[C@H]1O[C@@H](OC(=O)c2cc(O)c(O)c(OC(=O)c3cc(O)c(O)c(O)c3)c2)[C@H](OC(=O)c2cc(O)c(O)c(OC(=O)c3cc(O)c(O)c(O)c3)c2)[C@@H](OC(=O)c2cc(O)c(O)c(OC(=O)c3cc(O)c(O)c(O)c3)c2)[C@@H]1OC(=O)c1cc(O)c(O)c(OC(=O)c2cc(O)c(O)c(O)c2)c1)c1cc(O)c(O)c(OC(=O)c2cc(O)c(O)c(O)c2)c1 | mg/dL | 241.2 |
| CCOc1ccc(NC(C)=O)cc1 | mg/dL | 263.6 |
| Cc1nnc2n1-c1ccc(Cl)cc1C(c1ccccc1Cl)=NC2 | mg/dL | 249.6 |
